Each recorded value in this set is attributed to ChEMBL document CHEMBL3580536.

# Measurement Protocol: Antiproliferative activity against human COLO205 cells expressing B-Raf V600E mutant incubated for 68 hrs by MTT assay
# Assay type: functional, cell-based
# Measurement Parameters: COLO 205, 68 h
Experimental Endpoint: pIC50
# pIC50 is unitless: minus log10 of the molar concentration; print number only

- Chemical Structure: "O=S(=O)(Nc1ccc(F)c(C#Cc2cnc3[nH]ncc3c2)c1F)c1ccc(F)cc1"
  pIC50: 5.17

We now examine a further molecule.
Dear colleague, please send me the reported pIC50 for O=S(=O)(Nc1ccc(F)c(C#Cc2cnc3[nH]nc(C4CC4)c3c2)c1F)c1cccnc1 when you can. 7.21

###

# System Tested: Serine/threonine-protein kinase B-raf (Homo sapiens, UniProt P15056, V600E)
# Sequence (P15056 2-766 V600E limits assumed): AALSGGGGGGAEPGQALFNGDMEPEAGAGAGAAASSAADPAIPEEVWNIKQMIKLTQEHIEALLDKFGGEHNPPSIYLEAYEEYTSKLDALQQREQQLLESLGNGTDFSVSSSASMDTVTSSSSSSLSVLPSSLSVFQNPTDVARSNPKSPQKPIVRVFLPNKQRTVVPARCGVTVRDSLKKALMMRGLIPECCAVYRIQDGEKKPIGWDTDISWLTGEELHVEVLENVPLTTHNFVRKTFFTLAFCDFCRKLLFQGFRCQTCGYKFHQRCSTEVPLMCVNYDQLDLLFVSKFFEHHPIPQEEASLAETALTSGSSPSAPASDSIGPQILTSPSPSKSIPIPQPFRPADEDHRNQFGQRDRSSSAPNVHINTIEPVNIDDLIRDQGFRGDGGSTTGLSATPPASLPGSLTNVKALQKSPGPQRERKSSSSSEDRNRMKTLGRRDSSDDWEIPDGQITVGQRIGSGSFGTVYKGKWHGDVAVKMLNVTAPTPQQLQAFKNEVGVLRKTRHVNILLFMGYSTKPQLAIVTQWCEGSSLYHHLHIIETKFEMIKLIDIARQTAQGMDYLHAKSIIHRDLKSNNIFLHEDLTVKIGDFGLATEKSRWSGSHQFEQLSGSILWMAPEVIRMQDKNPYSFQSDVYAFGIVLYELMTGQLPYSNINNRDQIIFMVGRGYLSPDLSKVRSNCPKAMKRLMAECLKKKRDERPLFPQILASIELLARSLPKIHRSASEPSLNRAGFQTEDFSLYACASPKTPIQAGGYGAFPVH
pIC50: recorded values
# reply with the number alone; pIC50 is -log10 of concentration in mol/L

Solved cases (7 shown):
- Chemical Structure: "O=S(=O)(Nc1ccc(F)c(C#Cc2cnc3ccnn3c2)c1F)c1cccnc1"
  System Tested: "Serine/threonine-protein kinase B-raf (Homo sapiens, UniProt P15056, V600E)"
  Experimental Endpoint: "pIC50"
  Value Observed: 6.27
- Chemical Structure: "O=S(=O)(Nc1ccc(F)c(C#Cc2cnc3[nH]nc(-c4ccccc4Cl)c3c2)c1F)c1cccnc1"
  System Tested: "Serine/threonine-protein kinase B-raf (Homo sapiens, UniProt P15056, V600E)"
  Experimental Endpoint: "pIC50"
  Value Observed: 6.88
- Chemical Structure: "O=S(=O)(Nc1ccc(F)c(C#Cc2cnc3[nH]ncc3c2)c1F)c1ccc(F)cc1"
  System Tested: "Serine/threonine-protein kinase B-raf (Homo sapiens, UniProt P15056, V600E)"
  Experimental Endpoint: "pIC50"
  Value Observed: 6.04
- Chemical Structure: "CCOc1n[nH]c2ncc(C#Cc3c(F)ccc(NS(=O)(=O)c4cccnc4)c3F)cc12"
  System Tested: "Serine/threonine-protein kinase B-raf (Homo sapiens, UniProt P15056, V600E)"
  Experimental Endpoint: "pIC50"
  Value Observed: 6.91
- Chemical Structure: "O=S(=O)(Nc1ccc(F)c(C#Cc2cnc3[nH]nc(-c4ccc(Cl)cc4)c3c2)c1F)c1cccnc1"
  System Tested: "Serine/threonine-protein kinase B-raf (Homo sapiens, UniProt P15056, V600E)"
  Experimental Endpoint: "pIC50"
  Value Observed: 7.68
- Chemical Structure: "O=S(=O)(Nc1ccc(F)c(C#Cc2cnc3[nH]ncc3c2)c1F)c1ccccc1"
  System Tested: "Serine/threonine-protein kinase B-raf (Homo sapiens, UniProt P15056, V600E)"
  Experimental Endpoint: "pIC50"
  Value Observed: 6.83
- Chemical Structure: "Cc1n[nH]c2ncc(C#Cc3c(F)ccc(NS(=O)(=O)c4cccnc4)c3F)cc12"
  System Tested: "Serine/threonine-protein kinase B-raf (Homo sapiens, UniProt P15056, V600E)"
  Experimental Endpoint: "pIC50"
  Value Observed: 7.60

// switching to the query compound
Indicate the recorded pIC50 value for this compound: O=S(=O)(Nc1ccc(F)c(C#Cc2cnc3[nH]ncc3c2)c1F)c1cccc(F)c1 7.17
